# experimentDescription: MRT in Sprague-Dawley rat at 3 mg/kg, iv measured for 24 hrs by LC-MS/MS analysis
# Type: ADME, organism-based
# experimentalParameters: in vivo
experimentalEndpoint: MRT (h)

>>> print(df.to_string())
                            substancesmiles  endpointresult
0  Cn1ncc2c(NC(P(=O)(O)O)P(=O)(O)O)nc(-c3cccc(C(=O)Nc4ccc(C(F)(F)F)cc4)c3)nc21            4.68

* * *

# experimentDescription: Volume of distribution in Sprague-Dawley rat at 3 mg/kg, iv measured for 24 hrs by LC-MS/MS analysis
# Format: ADME, organism-based
# experimentalParameters: in vivo
experimentalEndpoint: Vd

>>> print(df.to_string())
                            substancesmiles  experimentalendpoint  endpointresult
0  Cn1ncc2c(NC(P(=O)(O)O)P(=O)(O)O)nc(-c3cccc(C(=O)Nc4ccc(C(F)(F)F)cc4)c3)nc21                    Vd      0.055 L/kg

* * *

# key: entry, value: pIC50
# measuredOn: Geranylgeranyl pyrophosphate synthase (Homo sapiens, UniProt O95749)
# Sequence (O95749 whole entry): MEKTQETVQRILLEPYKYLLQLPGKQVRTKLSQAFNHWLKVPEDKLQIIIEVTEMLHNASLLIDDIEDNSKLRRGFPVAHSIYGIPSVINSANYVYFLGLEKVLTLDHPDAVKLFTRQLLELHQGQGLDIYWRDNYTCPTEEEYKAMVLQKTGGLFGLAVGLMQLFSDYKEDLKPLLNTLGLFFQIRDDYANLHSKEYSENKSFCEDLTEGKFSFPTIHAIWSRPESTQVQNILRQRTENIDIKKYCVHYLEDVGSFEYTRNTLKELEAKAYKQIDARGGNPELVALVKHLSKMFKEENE
# experimentDescription: Inhibition of N-terminal His6 tagged human GGPPS expressed in Escherichia coli BL21(DE3) cells in presence of FPP and [14C]IPP by scintillation counting analysis
pIC50: −log10 of the molar value.
experimentalEndpoint: pIC50

>>> df
                            substancesmiles                                measuredon  endpointresult
0  CCn1ncc2c(NC(P(=O)(O)O)P(=O)(O)O)nc(-c3cccc(C(=O)Nc4ccc(OC)c(F)c4)c3)nc21  Geranylgeranyl pyrophosphate synthase (Homo sapiens, UniProt O95749)            7.40
1  O=C(Nc1ccc(F)cc1)c1cccc(-c2nc(NC(P(=O)(O)O)P(=O)(O)O)c3ccsc3n2)c1  Geranylgeranyl pyrophosphate synthase (Homo sapiens, UniProt O95749)            7.74
2  CCn1cc2c(NC(P(=O)(O)O)P(=O)(O)O)nc(-c3cccc(C(=O)Nc4ccc(OC)c(F)c4)c3)nc2n1  Geranylgeranyl pyrophosphate synthase (Homo sapiens, UniProt O95749)            7.17
3  Cn1cnc2c(NC(P(=O)(O)O)P(=O)(O)O)nc(-c3cccc(C(=O)Nc4ccc(F)cc4)c3)nc21  Geranylgeranyl pyrophosphate synthase (Homo sapiens, UniProt O95749)            7.39

* * *

# key: entry, value: pEC50
# Tested on: MIA PaCa-2
# experimentDescription: cells
# experimentalParameters: Homo sapiens, MIA PaCa-2, 72 h
pEC50: −log10 of the molar value.
experimentalEndpoint: pEC50

                            substancesmiles  endpointresult
0  Nc1ccn([C@@H]2O[C@H](CO)[C@@H](O)C2(F)F)c(=O)n1            8.70
1  Cn1ncc2c(NC(P(=O)(O)O)P(=O)(O)O)nc(-c3cccc(C(=O)Nc4ccc(C(F)(F)F)cc4)c3)nc21            6.10
2  COc1cccc2c1C(=O)c1c(O)c3c(c(O)c1C2=O)C[C@@](O)(C(=O)CO)C[C@@H]3O[C@H]1C[C@H](N)[C@H](O)[C@H](C)O1            6.89
